Data provenance is ChEMBL document CHEMBL1153872.

Tested on: Rattus norvegicus
assay_overview: Antiinflammatory activity in Wister albino rat assessed as inhibition of carrageenan-induced paw edema at 50 mg/kg, po administered 30 mins before carrageenan challenge measured after 3 hrs relative to control
Assay type: functional
Label rule met when inhibition in vivo at 50 mg/kg >= 20%; otherwise rule not met.

Solved entries (count: 5):
>  <query_smiles>
Fc1ccc(-c2csc3nc(-c4cc(F)c(Cl)cc4Cl)nn23)cc1

>  <assigned_category>
rule met

$$$$
>  <query_smiles>
O=[N+]([O-])c1ccc(-c2csc3nc(-c4cc(F)c(Cl)cc4Cl)nn23)cc1

>  <assigned_category>
rule not met

$$$$
>  <query_smiles>
Cc1ccc(-c2csc3nc(-c4cc(F)c(Cl)cc4Cl)nn23)cc1

>  <assigned_category>
rule not met

$$$$
>  <query_smiles>
Fc1cc(-c2nc3scc(-c4ccc(Cl)cc4)n3n2)c(Cl)cc1Cl

>  <assigned_category>
rule met

$$$$
>  <query_smiles>
Fc1cc(-c2nc3scc(-c4ccc(Cl)cc4Cl)n3n2)c(Cl)cc1Cl

>  <assigned_category>
rule not met

$$$$

Qu. Is the recorded value of inhibition in vivo at 50 mg/kg equal to or greater than 20% for this compound? COc1ccc(-c2csc3nc(-c4cc(F)c(Cl)cc4Cl)nn23)cc1
Ans. rule met

Qu. Is the recorded value of inhibition in vivo at 50 mg/kg equal to or greater than 20% for this compound? Fc1cc(-c2nc3scc(-c4cc(F)c(Cl)cc4Cl)n3n2)c(Cl)cc1Cl
Ans. rule met

Qu. Is the recorded value of inhibition in vivo at 50 mg/kg equal to or greater than 20% for this compound? Fc1cc(-c2nc3scc(-c4ccc(Br)cc4)n3n2)c(Cl)cc1Cl
Ans. rule met

---

Tested on: Escherichia coli
assay_overview: Antibacterial activity against Escherichia coli after 24 hrs by broth dilution technique
Format: functional
parameter_measured: MIC (microg/cm3)
Answer in microg/cm3, number only, no unit symbol.

Study these solved cases before continuing.
>  <query_smiles>
Fc1cc(-c2nc3scc(-c4cc(F)c(Cl)cc4Cl)n3n2)c(Cl)cc1Cl

>  <MIC [microg/cm3]>
6.25

$$$$
>  <query_smiles>
O=C(O)c1cn(C2CC2)c2cc(N3CCNCC3)c(F)cc2c1=O

>  <MIC [microg/cm3]>
6.25

$$$$
>  <query_smiles>
COc1ccc(-c2csc3nc(-c4cc(F)c(Cl)cc4Cl)nn23)cc1

>  <MIC [microg/cm3]>
6.25

$$$$

Now take the following compound into account.
# MIC (compound: Fc1cc(-c2nc3scc(-c4ccc(Br)cc4)n3n2)c(Cl)cc1Cl ) is 6.25

---

System: Escherichia coli
assay_overview: Antibacterial activity against Escherichia coli after 24 hrs by broth dilution technique
Assay type: functional
parameter_measured: MIC (microg/cm3)
Answer in microg/cm3, number only, no unit symbol.

>  <query_smiles>
Cc1ccc(-c2csc3nc(-c4cc(F)c(Cl)cc4Cl)nn23)cc1

>  <parameter_measured>
MIC

>  <result_unit>
microg/cm3

>  <numeric_value>
12.5

$$$$

# MIC (compound: Fc1cc(-c2nc3scc(-c4ccc(Cl)cc4Cl)n3n2)c(Cl)cc1Cl ) is 12.5

# MIC (compound: Fc1ccc(-c2csc3nc(-c4cc(F)c(Cl)cc4Cl)nn23)cc1 ) is 6.25

# MIC (compound: Fc1cc(-c2nc3scc(-c4ccc(Cl)cc4)n3n2)c(Cl)cc1Cl ) is 6.25

# MIC (compound: O=[N+]([O-])c1ccc(-c2csc3nc(-c4cc(F)c(Cl)cc4Cl)nn23)cc1 ) is 6.25

---

System: Trichophyton mentagrophytes
assay_overview: Antifungal activity against Trichophyton mentagrophytes after 48 hrs by twofold broth dilution method
Assay type: functional
Consider the following molecules and their measured MIC readings.
Answer in microg/cm3, number only, no unit symbol.

Study these solved cases before continuing.
>  <query_smiles>
Fc1ccc(-c2csc3nc(-c4cc(F)c(Cl)cc4Cl)nn23)cc1

>  <MIC (microg/cm3)>
6.25

$$$$
>  <query_smiles>
Fc1cc(-c2nc3scc(-c4ccc(Cl)cc4)n3n2)c(Cl)cc1Cl

>  <MIC (microg/cm3)>
6.25

$$$$
>  <query_smiles>
O=[N+]([O-])c1ccc(-c2csc3nc(-c4cc(F)c(Cl)cc4Cl)nn23)cc1

>  <MIC (microg/cm3)>
25

$$$$

# MIC (molecule: C[C@@H]1[C@H](O)[C@@H](C)/C=C/C=C/C=C/C=C/C=C/C=C/C=C/[C@H](O[C@@H]2O[C@H](C)[C@@H](O)[C@H](N)[C@@H]2O)C[C@@H]2O[C@](O)(C[C@@H](O)C[C@@H](O)[C@H](O)CC[C@@H](O)C[C@@H](O)CC(=O)O[C@H]1C)C[C@H](O)[C@H]2C(=O)O ) is 6.25

# MIC (molecule: COc1ccc(-c2csc3nc(-c4cc(F)c(Cl)cc4Cl)nn23)cc1 ) is 12.5

# MIC (molecule: Cc1ccc(-c2csc3nc(-c4cc(F)c(Cl)cc4Cl)nn23)cc1 ) is 25

# MIC (molecule: Fc1cc(-c2nc3scc(-c4cc(F)c(Cl)cc4Cl)n3n2)c(Cl)cc1Cl ) is 6.25

---

Test system: Streptococcus pyogenes
assay_overview: Antibacterial activity against Streptococcus pyogenes after 24 hrs by broth dilution technique
Format: functional
parameter_measured: MIC (microg/cm3)
Answer in microg/cm3, number only, no unit symbol.

Study these solved cases before continuing.
>  <compound>
COc1ccc(-c2csc3nc(-c4cc(F)c(Cl)cc4Cl)nn23)cc1

>  <experimental_system>
Streptococcus pyogenes

>  <MIC (microg/cm3)>
6.25

$$$$
>  <compound>
O=[N+]([O-])c1ccc(-c2csc3nc(-c4cc(F)c(Cl)cc4Cl)nn23)cc1

>  <experimental_system>
Streptococcus pyogenes

>  <MIC (microg/cm3)>
12.5

$$$$
>  <compound>
Fc1cc(-c2nc3scc(-c4ccc(Cl)cc4Cl)n3n2)c(Cl)cc1Cl

>  <experimental_system>
Streptococcus pyogenes

>  <MIC (microg/cm3)>
6.25

$$$$
>  <compound>
Fc1cc(-c2nc3scc(-c4ccc(Br)cc4)n3n2)c(Cl)cc1Cl

>  <experimental_system>
Streptococcus pyogenes

>  <MIC (microg/cm3)>
6.25

$$$$

# MIC (compound: Fc1cc(-c2nc3scc(-c4cc(F)c(Cl)cc4Cl)n3n2)c(Cl)cc1Cl ) is 6.25

# MIC (compound: Fc1cc(-c2nc3scc(-c4ccc(Cl)cc4)n3n2)c(Cl)cc1Cl ) is 6.25

# MIC (compound: O=C(O)c1cn(C2CC2)c2cc(N3CCNCC3)c(F)cc2c1=O [CIPROFLOXACIN] ) is 6.25

# MIC (compound: Cc1ccc(-c2csc3nc(-c4cc(F)c(Cl)cc4Cl)nn23)cc1 ) is 12.5

# MIC (compound: Fc1ccc(-c2csc3nc(-c4cc(F)c(Cl)cc4Cl)nn23)cc1 ) is 6.25

---

Test system: Escherichia coli
assay_overview: Antibacterial activity against Escherichia coli after 24 hrs by disk diffusion method
Format: functional
parameter_measured: Diameter of inhibition zone (mm)
Answer in mm, number only, no unit symbol.

Study these solved cases before continuing.
>  <compound>
Fc1cc(-c2nc3scc(-c4ccc(Cl)cc4Cl)n3n2)c(Cl)cc1Cl

>  <result_unit>
mm

>  <Diameter of inhibition zone>
11

$$$$
>  <compound>
Fc1ccc(-c2csc3nc(-c4cc(F)c(Cl)cc4Cl)nn23)cc1

>  <result_unit>
mm

>  <Diameter of inhibition zone>
23

$$$$
>  <compound>
O=[N+]([O-])c1ccc(-c2csc3nc(-c4cc(F)c(Cl)cc4Cl)nn23)cc1

>  <result_unit>
mm

>  <Diameter of inhibition zone>
15

$$$$
>  <compound>
Fc1cc(-c2nc3scc(-c4ccc(Br)cc4)n3n2)c(Cl)cc1Cl

>  <result_unit>
mm

>  <Diameter of inhibition zone>
24

$$$$

# Diameter of inhibition zone (compound: COc1ccc(-c2csc3nc(-c4cc(F)c(Cl)cc4Cl)nn23)cc1 ) is 25

# Diameter of inhibition zone (compound: Fc1cc(-c2nc3scc(-c4ccc(Cl)cc4)n3n2)c(Cl)cc1Cl ) is 26

# Diameter of inhibition zone (compound: Cc1ccc(-c2csc3nc(-c4cc(F)c(Cl)cc4Cl)nn23)cc1 ) is 13

# Diameter of inhibition zone (compound: Fc1cc(-c2nc3scc(-c4cc(F)c(Cl)cc4Cl)n3n2)c(Cl)cc1Cl ) is 28

# Diameter of inhibition zone (compound: O=C(O)c1cn(C2CC2)c2cc(N3CCNCC3)c(F)cc2c1=O [CIPROFLOXACIN] ) is 29

---

System: Mus musculus
assay_overview: Analgesic activity in albino mouse assessed as response latency time to pain stimulus at 25 mg/kg, po after 3 hrs by hot plate method
Format: functional
Set-up: unit not given here
parameter_measured: Time
Answer using only a numeral; do not append any unit.

Study these solved cases before continuing.
>  <query_smiles>
Fc1cc(-c2nc3scc(-c4ccc(Cl)cc4)n3n2)c(Cl)cc1Cl

>  <numeric_value>
12.9

$$$$
>  <query_smiles>
Fc1cc(-c2nc3scc(-c4ccc(Br)cc4)n3n2)c(Cl)cc1Cl

>  <numeric_value>
13.9

$$$$

Now take the following molecule into account.
# Time (molecule: O=[N+]([O-])c1ccc(-c2csc3nc(-c4cc(F)c(Cl)cc4Cl)nn23)cc1 ) is 10.9
